Biological target: T1, recombinant mouse WISP1/His (mouse, UniProt O54775 23-367)
T1 construct: also called murine WISP1; mWISP1; not shown: His tag
T1 sequence (looked up): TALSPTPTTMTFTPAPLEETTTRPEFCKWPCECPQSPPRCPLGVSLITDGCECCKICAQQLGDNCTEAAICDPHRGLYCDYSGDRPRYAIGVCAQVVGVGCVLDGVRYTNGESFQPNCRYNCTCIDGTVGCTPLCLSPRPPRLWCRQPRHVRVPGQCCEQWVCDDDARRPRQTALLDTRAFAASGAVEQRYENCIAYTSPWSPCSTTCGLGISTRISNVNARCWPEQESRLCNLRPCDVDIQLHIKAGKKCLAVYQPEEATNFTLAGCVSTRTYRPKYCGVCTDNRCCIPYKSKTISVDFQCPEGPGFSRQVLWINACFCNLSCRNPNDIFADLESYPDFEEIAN
Experiment: ELISA screening
MEASUREMENT KIND: binding result

BINDER | MEASUREMENT KIND | TEST RESULT
WIr2A2 (antibody, V domains shown, Fully human IgG; also called Wlr2A2) VH: EVQLVQSGAEVKKPGASVKVSCKVSGYTLTELSMHWVRQAPGKGLEWMGGFDPEDGETIYAQKFQGRVTMTEDTSTDTAYMELSSLRSEDTAVYYCATFMFDHDWFQLDPWGQGTLVTVSS VL: QSALTQPPSASGTPGQRVTIACSGSSSNIGTNTVNWYQQLPGTAPKLLIYNNNQRPSGVPDRFSGSKSGTSASLAITGLQAEDEADYYCQSYDRSLSGYVFGSGTKLTVL | binding result | binds
WIr2D3 (antibody, V domains shown, Fully human IgG; also called Wlr2D3) VH: QVQLVQSGGGLVQPGRSLRLSCAASGFTFSSYGMHWVRQAPGKGLEWVAVISYDGSNKYYADSVKGRFTISRDNSKNTLYLQMNSLRAEDTAVYYCFDDYVDYWGQGTLVTVSS VL: DIVMTQTPSSLSASVGDRVTITCRASQGISNYLAWYQQKPGKAPKLLIYAASSLQSGVPSRFSGSGSGTDFTLTISSLRPEDFATYYCLQDYSFPLTFGGGTKVEIK | binding result | binds
WIr2H2 (antibody, V domains shown, Fully human IgG; also called Wlr2H2) VH: EVQLVQSGADVKKPGASVKVSCQASGYTLTSYDIHWMRQAPGQGLEWMGWINPNSGNTGYAEKFQGRVAMTSHTSTSTVYMELSRLTSEDTAVYYCARGAMGGFDPWGQGTLVTVSS VL: DIQMTQSPSSVSASVGDRVTITCRASQDISRWLAWYQQKPGKAPKLLIYAASTLQSGVPSRFSGSGSGTDFTLTISSLQPEDFATYYCQQANTFPITFGQGTRLEIK | binding result | binds
